systemName: T1, HLA-DR3 (DRB1*0301) (human)
T1 construct: purified HLA class II molecule
experimentNotes: competition binding assay, purified HLA, 125I-labelled probe peptide, gel filtration
reportedMetric: relative binding ratio

Request: Item KGPLPTDCCHEQCAA (also called Her2/neu.228) [HER2/neu peptide KGPLPTDCCHEQCAA (position 228)] has what recorded relative binding ratio?
Result: -0.0027 ratio to standard peptide

Request: Item SLSFLQDIQEVQGYV (also called Her2/neu.70) [HER2/neu peptide SLSFLQDIQEVQGYV (position 70)] has what recorded relative binding ratio?
Result: 0.052 ratio to standard peptide

Request: Item RSLLEDDDMGDLVDA (also called Her2/neu.1006) [HER2/neu peptide RSLLEDDDMGDLVDA (position 1006)] has what recorded relative binding ratio?
Result: 0.008 ratio to standard peptide

Request: Item NQEVTAEDGTQRCEK (also called Her2/neu.319) [HER2/neu peptide NQEVTAEDGTQRCEK (position 319)] has what recorded relative binding ratio?
Result: -0.0027 ratio to standard peptide

Request: Item TVPLPSETDGYVAPL (also called Her2/neu.1117) [HER2/neu peptide TVPLPSETDGYVAPL (position 1117)] has what recorded relative binding ratio?
Result: -0.0025 ratio to standard peptide

Request: Item SDVFDGDLGMGAAKG (also called Her2/neu.1083) [HER2/neu peptide SDVFDGDLGMGAAKG (position 1083)] has what recorded relative binding ratio?
Result: -0.0025 ratio to standard peptide

Request: Item IWKFPDEEGACQPCP (also called Her2/neu.613) [HER2/neu peptide IWKFPDEEGACQPCP (position 613)] has what recorded relative binding ratio?
Result: -0.0027 ratio to standard peptide

Request: Item LVTYNTDTFESMPNP (also called Her2/neu.271) [HER2/neu peptide LVTYNTDTFESMPNP (position 271)] has what recorded relative binding ratio?
Result: -0.0027 ratio to standard peptide

Request: Item VHTVPWDQLFRNPHQ (also called Her2/neu.477) [HER2/neu peptide VHTVPWDQLFRNPHQ (position 477)] has what recorded relative binding ratio?
Result: 0.022 ratio to standard peptide

Request: Item YRSLLEDDDMGDLVD (also called Her2/neu.1005) [HER2/neu peptide YRSLLEDDDMGDLVD (position 1005)] has what recorded relative binding ratio?
Result: 0.063 ratio to standard peptide

Request: Item PSGVKPDLSYMPIWK (also called Her2/neu.601) [HER2/neu peptide PSGVKPDLSYMPIWK (position 601)] has what recorded relative binding ratio?
Result: -0.0027 ratio to standard peptide

Request: Item GDLVDAEEYLVPQQG (also called Her2/neu.1015) [HER2/neu peptide GDLVDAEEYLVPQQG (position 1015)] has what recorded relative binding ratio?
Result: 0.025 ratio to standard peptide

Request: Item AIKVLRENTSPKANK (also called Her2/neu.751) [HER2/neu peptide AIKVLRENTSPKANK (position 751)] has what recorded relative binding ratio?
Result: 0.0075 ratio to standard peptide

Request: Item TAPLQPEQLQVFETL (also called Her2/neu.389) [HER2/neu peptide TAPLQPEQLQVFETL (position 389)] has what recorded relative binding ratio?
Result: 0.0023 ratio to standard peptide

Request: Item DLTLGLEPSEEEAPR (also called Her2/neu.1058) [HER2/neu peptide DLTLGLEPSEEEAPR (position 1058)] has what recorded relative binding ratio?
Result: -0.0025 ratio to standard peptide
